# Assay Notes: Inhibition of RSK2 in human MOLM-13 assessed as reduction in cell viability measured after 72 hrs by MTS assay
Criterion: EC50 strictly under 1000 nM. Met: fulfilled. Not met: not fulfilled.

Chemical String	Class Assignment
Oc1c(F)cc(Nc2ncc3ccn(-c4ccc(N5CCOCC5)cc4)c3n2)cc1F	fulfilled
Oc1c(F)cc(Nc2ncc3ncn(-c4ccc(CCN5CCOCC5)cc4)c3n2)cc1F	not fulfilled
COC(=O)CCCc1ccc(-n2cnc3cnc(Nc4cc(F)c(O)c(F)c4)nc32)cc1	not fulfilled
CN1CCN(c2ccc(-n3ccc4cnc(Nc5cc(F)c(O)c(F)c5)nc43)cc2)CC1	fulfilled
CC(C)CCn1ccc2cnc(Nc3cc(F)c(O)c(F)c3)nc21	not fulfilled
